Tested on: Saccharomyces cerevisiae
Assay: Zone of inhibition for Saccharomyces cerevisiae IFO 0203 at 0.05 ug/disc by conventional paper disk method
Format: functional
Kindly state zone of inhibition at 0.05 µg/disc for each of the entries shown.
Numbers only, in mm.

• CCCC[C@H]1C(=O)O[C@H](C)[C@H](NC(=O)c2cccc(NC=O)c2O)C(=O)O[C@@H](C)[C@@H]1OC(=O)CC(C)C [ANTIMYCIN A3] = 18
• COc1ccnc(C(=O)N[C@H]2COC(=O)[C@H](Cc3ccc(N)cc3)[C@@H](OC(=O)C(C)C)[C@H](C)OC2=O)c1O = 0

Parameters: items (list). Returns: zone of inhibition at 0.05 µg/disc for each item.
1. COc1ccnc(C(=O)N[C@H]2COC(=O)[C@H](Cc3ccccc3)[C@@H](OC(=O)C(C)C)[C@H](C)OC2=O)c1OC
2. COc1ccnc(C(=O)N[C@H]2COC(=O)[C@H](Cc3ccccc3)[C@@H](OC(=O)C(C)C)[C@H](C)OC2=O)c1OC(=O)CCCCCC(=O)Oc1ccccc1
3. COc1ccnc(C(=O)N[C@H]2COC(=O)[C@H](Cc3ccc(N(C)C)cc3)[C@@H](OC(=O)C(C)C)[C@H](C)OC2=O)c1O
4. COc1ccnc(C(=O)N[C@H]2COC(=O)[C@H](Cc3ccc(NC=O)cc3)[C@@H](OC(=O)C(C)C)[C@H](C)OC2=O)c1O
5. CC(C)C(=O)O[C@H]1[C@H](C)OC(=O)[C@@H](NC(=O)c2nc3ccccc3nc2O)COC(=O)[C@@H]1Cc1ccccc1
6. COc1ccnc(C(=O)N[C@H]2COC(=O)[C@H](Cc3ccccc3)[C@@H](OC(=O)C(C)C)[C@H](C)OC2=O)c1OC(=O)CCCCCC(=O)O
7. COc1ccc(O)c(C(=O)N[C@H]2COC(=O)[C@H](Cc3ccccc3)[C@@H](OC(=O)C(C)C)[C@H](C)OC2=O)n1
8. COc1ccnc(C(=O)N[C@H]2COC(=O)[C@H](Cc3ccc([N+](=O)[O-])cc3)[C@@H](OC(=O)C(C)C)[C@H](C)OC2=O)c1O

[out]
1: 0; 2: 10; 3: 11; 4: 0; 5: 18; 6: 16; 7: 19; 8: 15

Every entry's value here was drawn from ChEMBL document CHEMBL1143523.
